target or system: T1, human HER-2 protein (soluble / recombinant, used in SPR) (human, UniProt P04626 23-652)
T1 construct: also called immobilized HER2 protein; recombinant HER-2
assay protocol: SPR
property: pKd
Give only the number. pKd is defined as minus log10 of concentration in molar units.

binder	pKd
P1A3 antibody (antibody, V domains shown) VH: EVQLVQSGTEVKKPGASVRVSCKSSGYTFTSYYIHWVRQAPGQGLEWMAIINPGNGDTNYAQRFQGRVTMTRDTSTSTVYMELRSLRSDDTAVYFCAREIASYSGSYYDYWGQGTLVTVSS VL: QAVVTQEPSLSVSPGGTVTLTCGLSSGSVSTGHYASWYQQTPGQAPRTLFYNTNTRSSGVPDRFSGSIVGNKAALTITGAQADDESDYYCVLYVGDGIWVFGGGTKLTVLG	7.67

Task item: Which pKd is reported for this binder? P1F1 antibody (antibody, V domains shown) VH: QVQLVESGPGLVKPSGTLSLTCAVSGGSISSSNWWSWVRQPPGKGLEWIGEIYHSGSTNYNPSLKSRVTISVDTSKNQFSLKLSSVTAADTAVYYCARMGANSGGYLYGMDVWGQGTTVTVSS VL: QTVVTQEPSFSVSPGGTVTLTCGLSSGSVSTSYYPSWYQQTPGQAPRTLIYSTNTRSSGVPDRFSGSILGNKAALTITGAQADDESDYYCVLYMGSGIWVFGGGTKLTVLG
Reply: 7.94

Task item: Which pKd is reported for this binder? P1C5 antibody (antibody, V domains shown) VH: QVQLQESGPGLVKPSETLSLTCTVSGGSISSSSYYWGWIRQPPGKGLEWIGSIYYSGSTYYNPSLKSRVTISVDTSKNQFSLKLSSVTAADTAVYYCARYAPDSSGYLVAFDIWGQGTMVTVSS VL: QTVVTQEPSFSVSPGGTVTLTCGLSSGSVSTGYYPSWYQQTPGQAPRTLIYSTNSRSSGVPDRFSGSILGNKAALTITGAQADDESDYYCVLYMGSGISVFGGGTKLTVLG
Reply: 7.90

// provenance: patent US20210139605A1
